src = the RNAGym collection of RNA variant scans (doi:10.7554/elife.80360)

Listed below: self-cleavage values for each entry.
B1: HDV Ribozyme (parent)
chain: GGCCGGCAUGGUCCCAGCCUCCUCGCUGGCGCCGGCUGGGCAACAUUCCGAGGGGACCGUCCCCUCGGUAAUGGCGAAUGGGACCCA

# Variants of: B1
# assay method text: self-cleavage, relative activity (ratio to wild type); higher = more cleavage; co-transcriptional
measured metric: self-cleavage

sequence	reported result
GGCCGGCAUGGUCCCAGCCUCCUCGCUGGCGCCGGCUGGGCAACAUUCCGAGGGGACCAUCCCCUCGGUAAUGGCGAAUGGGACCUA	0.793
GGCCGGCAUGGUCCCAGCCUCCUCGCUGGCGCCGGCUGGGCAACAUUCCGAGGGGACCGUCCCAUCGGCAAUGGCGAAUGGGACCCA	0.782
GGCCGGCAUGGUCCCAGCCUCCUCGCUGGCGCCGGCUGGGCAACAUUCCGAGGGGACCGACCCCUCGGUAAUGGCGAGUGGGACCCA	0.808
GGCCGGCAUGGUCCCAGCCUCCUCGCUGGCGCCGGCUGGGCAACAUUCUGAGGGGACCGUCCCCUCGGUAAUGGCGUAUGGGACCCA	0.297
